targetEntity: thrombin (Homo sapiens, UniProt P00734)
Structures can show the parent of a compound that is named as a salt.
# note: exactly 400 nM is not below, so it is false; use true for Ki strictly under it

Ask: Is it true that Ki reported for N=C(N)c1ccc([C@H]2[C@H]3C(=O)N(Cc4ccc5c(c4)OCO5)C(=O)[C@H]3[C@@H]3CSCN32)cc1 (racemic) [Example 7.A)i), hydrochloride] is less than 400 nM?
Reply: false

Ask: Is it true that Ki reported for N=C(N)c1ccc([C@@H]2[C@@H]3C(=O)N(Cc4ccc5c(c4)OCO5)C(=O)[C@@H]3[C@H]3CCCN32)cc1 (racemic) [4.A)g), hydrochloride] is less than 400 nM?
Reply: true

Ask: Is it true that Ki reported for N=C(N)c1ccc([C@@H]2[C@@H]3C(=O)N(CC4CCCCC4)C(=O)[C@@H]3[C@H]3CCCN32)cc1 (racemic) [7.A)g), hydrochloride] is less than 400 nM?
Reply: true

Ask: Is it true that Ki reported for CCCCN1C(=O)[C@@H]2[C@H](C1=O)[C@H]1CCCN1[C@@H]2c1ccc(NC(=N)N)cc1 (racemic) [Example 9, nitrate] is less than 400 nM?
Reply: true

Ask: Is it true that Ki reported for C[C@H]1[C@@H]2C(=O)N(Cc3ccccc3)C(=O)[C@@H]2[C@H](c2ccc(C(=N)N)cc2)N1C (racemic) [4.A)a), hydrochloride] is less than 400 nM?
Reply: false

Ask: Is it true that Ki reported for N=C(N)c1ccc([C@@H]2[C@@H]3C(=O)N(Cc4ccccc4)C(=O)[C@@H]3[C@H]3C[C@H](O)CN32)cc1 [7.A)o), hydrochloride] is less than 400 nM?
Reply: false

* * *

targetEntity: Factor Xa (Homo sapiens, UniProt P00742)
Sequence (P00742 235-488 limits assumed): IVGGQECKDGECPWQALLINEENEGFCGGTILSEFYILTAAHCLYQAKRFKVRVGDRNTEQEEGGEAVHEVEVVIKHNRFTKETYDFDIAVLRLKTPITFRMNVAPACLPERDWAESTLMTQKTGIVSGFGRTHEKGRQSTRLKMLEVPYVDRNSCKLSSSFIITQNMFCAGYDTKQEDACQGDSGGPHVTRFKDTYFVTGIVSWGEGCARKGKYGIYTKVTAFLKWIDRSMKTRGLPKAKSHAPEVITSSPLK
Sequence (P00742 41-179 partner limits assumed): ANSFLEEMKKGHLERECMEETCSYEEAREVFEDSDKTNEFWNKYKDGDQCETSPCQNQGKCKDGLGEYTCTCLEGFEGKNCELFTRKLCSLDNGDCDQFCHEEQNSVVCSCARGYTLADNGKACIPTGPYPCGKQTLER
runDescription: inhibition of the amidolytic activity of Factor Xa (chromogenic substrate Bz-Ile-Glu-Gly-Arg-paranitroaniline)
Type: biochemical
conditionContext: substrate 167 μM final concentration
Where a name gives a salt, the structure may show the parent alone.
propertyLabel: pKi
Reminder that pKi means the negative base-10 logarithm of the concentration expressed in mol/L.

For N=C(N)c1ccc([C@@H]2N[C@](COCc3ccccc3)(C(=O)O)[C@@H]3C(=O)N(Cc4ccc(N)cc4)C(=O)[C@@H]32)cc1 (racemic) [Example 19, hydrochloride] the molecule record lists pKi as 7.12

For N=C(N)c1ccc([C@@H]2N[C@](COCc3ccccc3)(C(=O)O)[C@@H]3C(=O)N(Cc4ccc([N+](=O)[O-])cc4)C(=O)[C@@H]32)cc1 (racemic) [Example 18, hydrochloride] the molecule record lists pKi as 7.01
